B1: CCND2 (parent)
chain: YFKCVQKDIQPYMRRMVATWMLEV

Variants of: B1
Test protocol: protein stability index of a GFP-peptide fusion (GPS, HEK-293T) (PSI 1-6); higher = more stable;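 also: lentivirally expressed fusions sorted by FACS into six bins by GFP to DsRed ratio, PSI derived from sequencing read proportions per bin multiplied by bin number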
Applied conditions: c terminus: a fixed tail appended
Readout type: protein stability index
// no unit, no text: just the number

Given the variant YFKCVQKDIQPYMRRMVATVMLEV [W20V] , what is its reported protein stability index?
3.41

Same thing, different variant: YFKCVQKTIQPYMRRMVATWMLEV [D8T]
2.37

Same thing, different variant: YFKCVQKDIQPYRRRMVATWMLEV [M13R]
2.42

Same thing, different variant: YFKCVQKDIQYYMRRMVATWMLEV [P11Y]
2.74

Same thing, different variant: YFKCVQKDIQPYMRRMMATWMLEV [V17M]
2

Same thing, different variant: YFKCVQKDIQPYMRRMVATWELEV [M21E]
2.72

Same thing, different variant: YFKCVQKDIFPYMRRMVATWMLEV [Q10F]
1.99

Same thing, different variant: YFKCVQKDIQPYMRRMVATWMLEQ [V24Q]
2.5

Same thing, different variant: YFKCVQKDIQPYMRRMVATPMLEV [W20P]
2.58

Same thing, different variant: YFKCVQKDIQPYMRRMVHTWMLEV [A18H]
2.17

Same thing, different variant: YSKCVQKDIQPYMRRMVATWMLEV [F2S]
3.5

Same thing, different variant: YFKCVQKDIVPYMRRMVATWMLEV [Q10V]
2.5

Same thing, different variant: NFKCVQKDIQPYMRRMVATWMLEV [Y1N]
2.23

Same thing, different variant: YLKCVQKDIQPYMRRMVATWMLEV [F2L]
2.85

Same thing, different variant: YFKCVQKDIQPYMRRMVAAWMLEV [T19A]
3.42

Same thing, different variant: YFKCVQKDIQPYYRRMVATWMLEV [M13Y]
3.66

Same thing, different variant: YFKCVQMDIQPYMRRMVATWMLEV [K7M]
2.53

Same thing, different variant: YFKCVQKDCQPYMRRMVATWMLEV [I9C]
2.51

Same thing, different variant: YFKCVQKDIQPYMRRMVAQWMLEV [T19Q]
1.75

Same thing, different variant: YFKCVQKDIQPYCRRMVATWMLEV [M13C]
2.43

Same thing, different variant: YFKCVQKDIQPYMRRNVATWMLEV [M16N]
1.51

Same thing, different variant: YFKKVQKDIQPYMRRMVATWMLEV [C4K]
2.45
